# System: phosphorylation of Cdc2 Y15 (Wee1 substrate) in A427 cells
# Assay method text: Phosphorylated Cdc2 MSD Electrochemiluminescence Assay
# Format: cell-based
# Condition details: Homo sapiens, A-427, pCDC2 MSD
pIC50: −log10 of the molar value.
Measured pIC50 by item

The examples below pair each entry with its known result.
Compound | pIC50
C[C@H]1COC(=O)N1c1cccc(N2c3nc(Nc4ccc(C5CN(C)C5)cc4)ncc3[C@@]3(C)COC(C)(C)C[C@@H]23)n1 (single isomer, unassigned) [Example 311] | 6.00 to 7.00
C[C@H]1COC(=O)N1c1cccc(N2c3nc(Nc4ccc(O[C@@H]5CCNC5)nc4)ncc3[C@@]3(C)COC(C)(C)C[C@@H]23)n1 (single isomer, unassigned) [Example 287] | 6.00 to 7.00
CC1(C)C[C@H]2N(c3cccc(N=S(C)(C)=O)n3)c3nc(NC(=O)[C@@H]4C[C@H]4c4ccccc4)ncc3[C@@]2(C)CO1 (single isomer, unassigned) [Example 396] | 6.00 to 7.00
CN1CCC(n2cc(Nc3ncc4c(n3)N(c3cccc(N=S(C)(C)=O)n3)[C@@H]3CC(C)(C)OC[C@]43C)cn2)C1 (some centres unmarked) [Example 196] | 6.00 to 7.00
CC1(C)C[C@H]2N(c3cccc(N=S(C)(C)=O)n3)c3nc(Nc4ccc([C@H]5CCCN5)nc4)ncc3[C@@]2(C)CO1 (single isomer, unassigned) [Example 212] | 6.00 to 7.00

# input Supply pIC50 measured with phosphorylation of Cdc2 Y15 (Wee1 substrate) in A427 cells for CN1CCC[C@H]1c1ccc(Nc2ncc3c(n2)N(c2cccc(N=S(C)(C)=O)n2)[C@@H]2CC(C)(C)OC[C@]32C)cn1 (single isomer, unassigned) [Example 216] .
# output 6.00 to 7.00

# input Give phosphorylation of Cdc2 Y15 (Wee1 substrate) in A427 cells pIC50 for the following compound: CC1(C)C[C@H]2N(c3cccc(N=S(C)(C)=O)n3)c3nc(Nc4ccc([C@@H]5CCNC5)cc4)ncc3[C@@]2(C)CO1 (single isomer, unassigned) [Example 131]
# output > 7.00

# input Give pIC50 only, for CN1CC[C@H](c2ccc(Nc3ncc4c(n3)N(c3cccc(N=S(C)(C)=O)n3)[C@@H]3CC(C)(C)OC[C@]43C)cc2)C1 (single isomer, unassigned) [Example 133] , using phosphorylation of Cdc2 Y15 (Wee1 substrate) in A427 cells data.
# output 6.00 to 7.00

# input Answer with pIC50 of C[C@H]1COC(=O)N1c1cccc(N2c3nc(Nc4ccc(C5(C)COC5)cc4)ncc3[C@@]3(C)COC(C)(C)C[C@@H]23)n1 (single isomer, unassigned) [Example 303] measured for phosphorylation of Cdc2 Y15 (Wee1 substrate) in A427 cells.
# output 6.00 to 7.00

# input Find the measured pIC50 of C[C@H]1COC(=O)N1c1cccc(N2c3nc(Nc4ccc([C@@]5(C)CCN(C)C5)cc4)ncc3[C@@]3(C)COC(C)(C)C[C@@H]23)n1 (single isomer, unassigned) [Example 349] with phosphorylation of Cdc2 Y15 (Wee1 substrate) in A427 cells as test system.
# output 6.00 to 7.00

# input Provide phosphorylation of Cdc2 Y15 (Wee1 substrate) in A427 cells pIC50 reading for C[C@H]1COC(=O)N1c1cccc(N2c3nc(Nc4cnn(C5CCN(C)CC5)c4)ncc3[C@@]3(C)COC(C)(C)C[C@@H]23)n1 (single isomer, unassigned) [Example 243] .
# output > 7.00
